For each record, write down the corresponding cytotoxicity at 10 µM.
Test method notes: Toxicity liver stage against HepG2, at 10uM
Assay type: cell-based
Design: test concentration 10 uM, cell line HepG2-A16-CD81EGFP
Details: human, HepG2-A16-CD81EGFP cells; read-out: INHIBITION
Answers are plain numbers, in %.

Some solved cases for reference:
>>> data_value("CN1CCCC(CCC(=O)NCCc2nnc(N)s2)C1 (stereo not given)")
-146
>>> data_value("CCN1CCNC(=O)C12CCN(S(=O)(=O)c1ccccc1)CC2")
0.464
>>> data_value("CN1CCN(C)C2(CCN(Cc3ccc(C4CCCO4)s3)CC2)C1 (stereo not given)")
-11.7
>>> data_value("Cc1cnc(CN(C)C2CCN(CC(=O)Nc3nccs3)C2)o1 (stereo not given)")
-1.49
>>> data_value("COc1ccc(-c2n[nH]cc2CN(C)CCc2scnc2C)c(F)c1")
3.06

For each of the compounds below, state cytotoxicity at 10 µM.
1. COc1ccccc1CNC(=O)COc1c(C)n(C)ccc1=O
2. CN(C)CC1CN(Cc2coc(-c3cccs3)n2)CCO1 (stereo not given)
3. CCc1noc(CNc2cc3c(cc2Cl)OCCO3)n1
4. CC(NCCn1cccn1)c1ccccc1Cl (stereo not given)

**Result**
1. -41.4
2. 4.48
3. -0.18
4. -5.03

For each of the compounds below, state cytotoxicity at 10 µM.
1. CN(C)[C@@H]1C[C@@H](CO)N(C(=O)Nc2ccc(SC(F)(F)F)cc2)C1
2. Cc1cc(C)n(C2CN(CC(O)c3ccc(C(F)(F)F)cc3)C2)n1 (stereo not given)

**Result**
-0.187
-5.94

For each of the compounds below, state cytotoxicity at 10 µM.
1. Cc1cc(C)n(CCCN(C)c2cc(C3CC3)ncn2)n1
2. Cc1cc(NCC2(O)CCOCC2)nc2ccccc12
3. Cc1nc(CNC(=O)N2CCCC(c3ncc[nH]3)C2)sc1C (stereo not given)
4. CC(NCCN1CCN(C(=O)C2CCCC2)CC1)c1nccs1 (stereo not given)
5. CCC(CNC(=O)c1cccc(S(=O)(=O)NC)c1)N1CCCC1 (stereo not given)
6. CCOC1COC2(CCN(c3cccc(C)n3)CC2)C1 (stereo not given)
7. N#Cc1c(CN2CCCCC2Cn2cncn2)cn2ccccc12 (stereo not given)

**Result**
1. -0.609
2. -8.98
3. -0.331
4. -0.513
5. -4.18
6. -2.16
7. 3.06

----------
For each record, write down the corresponding cytotoxicity at 10 µM.
Test method notes: Toxicity liver stage against HepG2, at 10uM
Type: cell-based
Parameters: test concentration 10 uM, cell line HepG2-A16-CD81EGFP
Details: human, HepG2-A16-CD81EGFP cells; read-out: INHIBITION
Numbers only, in %.

Some solved cases for reference:
>>> data_value("COc1ccccc1CC1CCCN(C(=O)c2nccnc2N)C1 (stereo not given)")
5.79
>>> data_value("O=S(=O)(N1CCCC1)N(Cc1ccccc1)CC1CCCO1 (stereo not given)")
-0.966
>>> data_value("COCCSCC(=O)NCc1ccc(N(C)C)nc1")
9.15

For each of the compounds below, state cytotoxicity at 10 µM.
1. COCCn1ccnc1C1CCN(C(=O)C(O)c2ccc(F)cc2)CC1 (stereo not given)
2. CCc1noc(CN2CCN(CC(O)c3ccccc3)CC2)n1 (stereo not given)

**Result**
1: 1.73; 2: 1.19

----------
For each record, write down the corresponding cytotoxicity at 10 µM.
Test method notes: Toxicity liver stage against HepG2, at 10uM
Assay type: cell-based
Set-up: test concentration 10 uM, cell line HepG2-A16-CD81EGFP
Details: human, HepG2-A16-CD81EGFP cells; read-out: INHIBITION
Give bare numbers, in %.

Some solved cases for reference:
>>> data_value("Cc1nc(CN2CCc3nc(NC(C)C)nc(C)c3C2)cs1")
2.53
>>> data_value("COC(=O)NC1(C(=O)Nc2ccc(-c3ncc[nH]3)cc2)CCCC1")
-14.4
>>> data_value("CO[C@H]1CN(C(=O)c2ccccn2)[C@@H]2CCCO[C@H]12")
3.52
>>> data_value("Cc1cc(C(=O)N2CCN(C(=O)Cc3ccccn3)CC2)c(C)s1")
6.18
>>> data_value("COc1c(C2CCCN2C(=O)c2ccco2)c(C)nn1C (stereo not drawn)")
-1.68
>>> data_value("c1csc(CN2CCc3c(CNc4nncs4)cncc3C2)c1")
-70.1
>>> data_value("CC(C)NC(=O)c1cc2c([nH]c1=O)CC(c1cccs1)CC2=O (stereo not drawn)")
-3.01
>>> data_value("CC(C)NC(=O)C1CN(C(N)=O)Cc2ccnn2C1 (stereo not drawn)")
-8.68
>>> data_value("Cc1ncoc1C(=O)N1C[C@H]2CCC[C@@]2(COCC2CCOCC2)C1")
0.23
>>> data_value("CCOCC(O)CN1CCN(C(=O)c2cc(Cl)ccc2F)CC1 (stereo not drawn)")
-6.54

For each of the compounds below, state cytotoxicity at 10 µM.
1. CN1CCC2(CCN(CC3CCOCC3)CC2)C1=O
2. Cc1nnc(NCc2ccc(F)cc2)o1

**Result**
[6.77, 0.217]

**Query** Query: cytotoxicity at 10 µM; subject: COc1cccc(CN2CCCC3(CCN(C(CO)CO)C3)C2)c1 (stereo not drawn)
**Result** -5.96

----------
Test method notes: Toxicity liver stage against HepG2, at 10uM
Type: cell-based
Parameters: test concentration 10 uM, cell line HepG2-A16-CD81EGFP
Details: human, HepG2-A16-CD81EGFP cells; read-out: INHIBITION
Endpoint label: cytotoxicity at 10 µM (%)
One number for each entry, in %.

Some solved cases for reference:
>>> data_value("Cc1cccc(C(=O)N2C[C@@H]3CCN(c4cccnc4)C[C@@H]3C2)c1")
3.76
>>> data_value("O=C(CN(CC(O)c1ccc(F)cc1)C1CC1)NCc1cccs1 (stereo not given)")
0.0428
>>> data_value("O=C(c1ccccn1)N1CCC(Nc2cccnn2)CC1")
-0.121
>>> data_value("CN(C)C(=O)N[C@@H]1CN(Cc2ccc3c(c2)OCO3)[C@@H]2CCCO[C@@H]21")
-6.93

Please find the next compound below.
**Query** Query: cytotoxicity at 10 µM; subject: CN(C)CCN1C(=O)CCCC12CCCN(C(=O)c1cc[nH]n1)C2 (stereo not given)
**Result** -0.225

----------
Test method notes: Toxicity liver stage against HepG2, at 10uM
Format: cell-based
Design: test concentration 10 uM, cell line HepG2-A16-CD81EGFP
Details: human, HepG2-A16-CD81EGFP cells; read-out: INHIBITION
For each record, write down the corresponding cytotoxicity at 10 µM.
One number for each entry, in %.

Some solved cases for reference:
>>> data_value("COc1ccc(C(=O)N2CCN(c3cc(CCN)nc(C)n3)CC2)cc1")
-8.56
>>> data_value("CCc1ncc2c(n1)CN(C(=O)CC(C)NC(C)=O)C2 (configuration not stated)")
3.6

For each of the molecules below, state cytotoxicity at 10 µM.
1. CN(CCCc1cnn(C)c1)Cc1cc2n(n1)CCCN(C)C2
2. Cc1nccn1-c1cc(CNC(=O)C2CCC(=O)N2)ccn1 (configuration not stated)
3. CCOC[C@@H]1CCC[C@@]12CN(Cc1cccnc1)CCO2
4. CC(C)OCc1ccc(CNC(=O)CC(F)(F)F)cc1
5. COc1cc(C)sc1C(=O)N1CC(c2cccnc2)C1

**Result**
1: -0.857; 2: -1.24; 3: -65.7; 4: -2.26; 5: -8.97

----------
Test method notes: Toxicity liver stage against HepG2, at 10uM
Format: cell-based
Parameters: test concentration 10 uM, cell line HepG2-A16-CD81EGFP
Details: human, HepG2-A16-CD81EGFP cells; read-out: INHIBITION
Values of cytotoxicity at 10 µM strictly less than 20% map to Fulfilled, and values of at least 20% map to Not fulfilled.

>>> assigned_label("Cc1oc(NC(=O)C(C)N2CCN(C(=O)C3CC3)CC2)c(C#N)c1C (stereo unspecified)")
"Fulfilled"
>>> assigned_label("CC(C)N1CCOCC2(CN(Cc3nccs3)CCO2)C1 (stereo unspecified)")
"Fulfilled"
>>> assigned_label("CN1CCN(c2cnn(Cc3ccc(S(C)(=O)=O)cc3)c(=O)c2)CC1")
"Fulfilled"
>>> assigned_label("CCCN(C(=O)c1cccnc1)c1nc2c(s1)CCc1c-2cnn1C")
"Fulfilled"

**Query** A record lists CCNc1ncc(C(=O)NC2CCc3ccccc3C2)cn1 (stereo unspecified) . Is its cytotoxicity at 10 µM below 20%?
**Result** Not fulfilled

----------
Test method notes: Toxicity liver stage against HepG2, at 10uM
Assay type: cell-based
Design: test concentration 10 uM, cell line HepG2-A16-CD81EGFP
Details: human, HepG2-A16-CD81EGFP cells; read-out: INHIBITION
Endpoint label: cytotoxicity at 10 µM (%)
Give bare numbers, in %.

Some solved cases for reference:
>>> data_value("CC(O)(CNc1ccc(Cl)c(C#N)n1)c1ccccc1 (configuration not stated)")
-9.06
>>> data_value("COc1ccc(-c2noc(CN3CCCC3Cn3cccn3)n2)cc1 (configuration not stated)")
2.88
>>> data_value("CCc1nc2n(n1)CC(NCCC(=O)Nc1cc(C)on1)CC2 (configuration not stated)")
-10

For each of the compounds below, state cytotoxicity at 10 µM.
1. Cc1cc(NC(=O)C2CCN(c3nnc(C)c(C)c3C#N)CC2)no1
2. CC(C)OCCC1CCCCN1S(C)(=O)=O (configuration not stated)
3. O=C(c1scc2c1OCCO2)N1CCOC(Cc2cccc(F)c2)C1 (configuration not stated)
4. CNc1ncc(C(=O)N2CCOC(C(=O)NC3CCCC3)C2)cn1 (configuration not stated)

**Result**
[-4.11, 2.43, 4.78, 12.2]
